Target or system: Acetylcholinesterase (Homo sapiens)
Sequence (P22303 whole entry): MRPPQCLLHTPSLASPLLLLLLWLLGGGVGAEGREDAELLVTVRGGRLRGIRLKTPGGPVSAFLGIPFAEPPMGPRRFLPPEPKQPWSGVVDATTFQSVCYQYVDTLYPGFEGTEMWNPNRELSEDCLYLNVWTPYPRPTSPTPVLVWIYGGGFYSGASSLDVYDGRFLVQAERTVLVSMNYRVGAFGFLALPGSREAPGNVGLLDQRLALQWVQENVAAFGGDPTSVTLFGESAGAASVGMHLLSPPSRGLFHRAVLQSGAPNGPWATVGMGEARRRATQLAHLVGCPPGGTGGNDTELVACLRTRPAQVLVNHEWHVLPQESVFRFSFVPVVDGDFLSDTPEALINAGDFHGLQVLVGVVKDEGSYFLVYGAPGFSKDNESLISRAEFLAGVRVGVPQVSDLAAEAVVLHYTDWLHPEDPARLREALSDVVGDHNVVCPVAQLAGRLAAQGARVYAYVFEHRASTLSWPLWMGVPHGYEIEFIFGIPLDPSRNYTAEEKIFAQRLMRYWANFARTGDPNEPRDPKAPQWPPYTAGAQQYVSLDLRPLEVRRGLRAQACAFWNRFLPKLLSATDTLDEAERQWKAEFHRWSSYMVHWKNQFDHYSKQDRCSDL
Exercise: for every item that follows, state its recorded log10 EC50.
Recall that a logarithmic scale is used here: each number is log10 of EC50 in nM.

# input Entry C[N+]1(Cc2ccccc2)CCC(CCC(=O)c2ccc3c(c2)CCO3)CC1 (stereo not given) needs its log10 EC50 filled in; supply it.
# output 1.95

# input Supply reported log10 EC50 belonging to this compound: `COc1cc2c(cc1OC)C(=O)/C(=C/c1cc[n+](Cc3ccccc3)cc1)C2`
# output 1.08

# input State its log10 EC50: COc1cc2cc(C(=O)CCC3CC[N+](C)(Cc4ccccc4)CC3)n(C)c2cc1OC (stereo not given)
# output 3.20

# input Consider the compound COc1cc2c(cc1OC)C(=O)[C@@H]([C@H](O)C1CC[N+](C)(Cc3ccccc3)CC1)C2 (stereo not given in full) and give its recorded log10 EC50.
# output 2.95

# input Find the measured log10 EC50 of COc1cc2c(cc1OC)C(=O)C(Cc1cc[n+](Cc3ccccc3)cc1)C2 (stereo not given) and report it.
# output 2.00

# input Fill in log10 EC50 for record COc1cc2c(cc1OC)C(=O)C(C(O)C1CC[N+](C)(Cc3ccccc3)CC1)C2 (stereo not given)
# output 3.16

# input Identify measured log10 EC50 associated with COc1cc2c(cc1OC)C(=O)C(C(O)c1cc[n+](Cc3ccccc3)cc1)C2 (stereo not given)
# output 3.27

# input Return the recorded log10 EC50 value; entry: Cc1cc(C(=O)CCC2CC[N+](C)(Cc3ccccc3)CC2)nn1-c1ccccc1 (stereo not given)
# output 2.63
